Listed here are molecules together with their documented pIC50.
- TEST SYSTEM: PRMT5/MEP50 complex (Homo sapiens)
- Sequence (O14744 whole entry): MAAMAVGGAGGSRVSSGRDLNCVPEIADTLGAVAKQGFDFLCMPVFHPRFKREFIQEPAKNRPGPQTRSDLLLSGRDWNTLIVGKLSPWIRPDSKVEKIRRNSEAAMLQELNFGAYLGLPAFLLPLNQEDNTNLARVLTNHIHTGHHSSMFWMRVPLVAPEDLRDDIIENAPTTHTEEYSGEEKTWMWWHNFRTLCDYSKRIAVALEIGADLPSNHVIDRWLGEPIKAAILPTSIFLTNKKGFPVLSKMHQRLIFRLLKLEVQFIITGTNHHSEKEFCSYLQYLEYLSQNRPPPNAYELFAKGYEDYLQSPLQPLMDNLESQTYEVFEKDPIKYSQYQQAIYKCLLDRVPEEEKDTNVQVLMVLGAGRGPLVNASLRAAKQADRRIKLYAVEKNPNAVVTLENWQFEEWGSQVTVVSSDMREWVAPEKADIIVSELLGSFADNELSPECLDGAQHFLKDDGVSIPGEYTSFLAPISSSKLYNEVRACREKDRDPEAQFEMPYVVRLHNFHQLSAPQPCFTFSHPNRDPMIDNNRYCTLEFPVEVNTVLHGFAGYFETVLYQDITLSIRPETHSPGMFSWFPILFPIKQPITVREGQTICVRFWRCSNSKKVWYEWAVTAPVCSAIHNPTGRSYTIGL
- Sequence (Q9BQA1 whole entry, further chain): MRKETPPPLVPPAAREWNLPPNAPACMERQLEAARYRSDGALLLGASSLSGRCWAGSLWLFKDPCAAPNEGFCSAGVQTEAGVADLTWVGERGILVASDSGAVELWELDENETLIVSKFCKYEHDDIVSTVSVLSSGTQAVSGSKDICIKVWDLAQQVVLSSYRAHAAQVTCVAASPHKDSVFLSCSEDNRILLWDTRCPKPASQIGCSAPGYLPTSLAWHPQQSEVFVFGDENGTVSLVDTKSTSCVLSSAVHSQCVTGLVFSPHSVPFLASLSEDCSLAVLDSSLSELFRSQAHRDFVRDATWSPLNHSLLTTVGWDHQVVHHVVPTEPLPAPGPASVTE
- PROTOCOL DETAILS: biochemical
- Description: Inhibition of PRMT5 (1 to 637 residues)/MEP504 (2 to 342 residues)(unknown origin) expressed in baculovirus infected Sf21 insect cells using histone H4/SAM as substrate incubated for 5 hrs in presence of MTA by MTase Glo assay
Interpret pIC50 as the negative base-10 log of the concentration measured in mol/L.

Previously resolved entries follow.
[[record]]
molecule = "O=C1c2cc(F)ccc2[C@]2(CCN(Cc3ccc(F)cc3)C2=O)N1Cc1cc2cnccc2[nH]1"
quantitative_result = 6.01

[[record]]
molecule = "COc1ccc2c(c1)C(=O)N(Cc1cnc(NC(=N)N)s1)C2C(=O)NCc1ccc(F)cc1 (stereo not given)"
quantitative_result = 7.92

[[record]]
molecule = "N=C(N)Nc1cc(CN2C(=O)c3ccccc3C2C(=O)NCc2ccc(F)cc2)ccn1 (stereo not given)"
quantitative_result = 5.53

[[record]]
molecule = "Nc1ccc2cc(CN3C(=O)c4cc(F)ccc4[C@]34CCN(Cc3ccc(F)cc3)C4=O)[nH]c2n1"
quantitative_result = 8.05


Now examine the next entry.
What measured pIC50 goes with O=C1c2cc(F)ccc2[C@]2(CCN(Cc3ccc(F)cc3)C2=O)N1Cc1cc2ccncc2[nH]1 ?
6.43

---

- PROTOCOL DETAILS: in vitro
- STUDY CONDITIONS: human, Caco-2
- Description: Apparent permeability across apical to basal side of human Caco-2 cells at 10 uM
Binarize Papp A→B at 10 µM at 3 ×10⁻⁶ cm/s; below is true, at or above is false.

Say whether its Papp A→B at 10 µM is strictly beneath 3 ×10⁻⁶ cm/s. Entry: Nc1nc2cc(CN3C(=O)c4cc(F)ccc4[C@]34CCN(Cc3ccc(F)cc3)C4=O)[nH]c2cc1F
false

Dear reviewer, please state whether COc1cc(N)nc2cc(CN3C(=O)c4cc(F)ccc4[C@]34CCN(Cc3ccc(F)cc3)C4=O)[nH]c12 has Papp A→B at 10 µM strictly beneath 3 ×10⁻⁶ cm/s.
true

Item Nc1ccc2cc(CN3C(=O)c4cc(F)ccc4[C@]34CCN(Cc3ccc(F)cc3)C4=O)[nH]c2n1 : Papp A→B at 10 µM beneath 3 ×10⁻⁶ cm/s, strictly?
false

Please check: Papp A→B at 10 µM for Nc1ccc2[nH]c(CN3C(=O)c4cc(F)ccc4[C@]34CCN(Cc3ccc(F)cc3)C4=O)cc2n1 , strictly under 3 ×10⁻⁶ cm/s or not?
true

Bench note: check whether O=C(NCc1ccc(F)cc1)C1c2ccccc2C(=O)N1Cc1cc2cccnc2[nH]1 (stereo not given) shows Papp A→B at 10 µM below 3 ×10⁻⁶ cm/s
false

---

- PROTOCOL DETAILS: Unbound protein binding in rat plasma by equilibrium dialysis
- Assay type: ADME, cell-free
PROPERTY LABEL: fraction unbound
Response field accepts a number only; no unit should be typed.

So what's the measured fraction unbound for this one? N=C(N)Nc1ncc(CN2C(=O)c3ccccc3C2C(=O)NCc2ccc(F)cc2)s1 (stereo unspecified)
0.19

---

- PROTOCOL DETAILS: Volume of distribution at steady state in Wistar Han rat at 1 mg/kg, po or 0.5 mg/kg, iv
- Format: ADME, organism-based
- STUDY CONDITIONS: in vivo
Below: a set of entries, each annotated with reported Vdss.
Write the answer as a number in L/kg, unit excluded.

[[record]]
compound = "N=C(N)Nc1ncc(CN2C(=O)c3ccccc3C2C(=O)NCc2ccc(F)cc2)s1 (centres undefined)"
endpoint_unit = "L/kg"
quantitative_result = 1.6

[[record]]
compound = "Nc1ccc2[nH]c(CN3C(=O)c4cc(F)ccc4[C@]34CCN(Cc3ccc(F)cc3)C4=O)cc2n1"
endpoint_unit = "L/kg"
quantitative_result = 7.8


Requested read-out: Vdss. Entry: CNC(=N)Nc1ncc(CN2C(=O)c3cc(F)ccc3C2C(=O)NCc2ccc(F)cc2)s1 (centres undefined)
2.6

Name the reported Vdss value associated with the compound Nc1nc2cc(CN3C(=O)c4cc(F)ccc4[C@]34CCN(Cc3ccc(F)cc3)C4=O)[nH]c2cc1F
2.4

---

Parameter: bioavailability. Scope: all listed entries.
- PROTOCOL DETAILS: Oral bioavailability in CD-1 mouse at 1 mg/kg
- Type: ADME, organism-based
- STUDY CONDITIONS: in vivo
Response body: numeric value in %, unit text excluded.

[[record]]
smiles_text = "Nc1ccc2[nH]c(CN3C(=O)c4cc(F)ccc4[C@]34CCN(Cc3ccc(F)cc3)C4=O)cc2n1"
quantitative_result = 3


Please turn your attention to the following entry.
Would you mind telling me what bioavailability value was observed for Nc1nc2cc(CN3C(=O)c4cc(F)ccc4[C@]34CCN(Cc3ccc(F)cc3)C4=O)[nH]c2cc1F ?
101

---

- PROTOCOL DETAILS: Oral bioavailability at steady state in Wistar Han rat at 1 mg/kg
- Assay type: ADME, organism-based
- STUDY CONDITIONS: in vivo
PROPERTY LABEL: bioavailability (%)
# output: bare number, implied unit %

[[record]]
molecule = "N=C(N)Nc1ncc(CN2C(=O)c3ccccc3C2C(=O)NCc2ccc(F)cc2)s1 (stereo not drawn)"
endpoint_unit = "%"
quantitative_result = 2

[[record]]
molecule = "CNC(=N)Nc1ncc(CN2C(=O)c3cc(F)ccc3C2C(=O)NCc2ccc(F)cc2)s1 (stereo not drawn)"
endpoint_unit = "%"
quantitative_result = 20


Okay, next one:
Requested read-out: bioavailability. Entry: Nc1nc2cc(CN3C(=O)c4cc(F)ccc4[C@]34CCN(Cc3ccc(F)cc3)C4=O)[nH]c2cc1F
35

---

Here, each record is paired with measured solubility at 24 h data.
- PROTOCOL DETAILS: physchem
- STUDY CONDITIONS: phosphate buffer, pH 7.4
Respond with the bare value in µM.

Known solubility at 24 h results, listed for orientation:
[[record]]
compound = "Nc1ccc2ncc(CN3C(=O)c4cc(F)ccc4[C@]34CCN(Cc3ccc(F)cc3)C4=O)cc2n1"
endpoint_unit = "µM"
quantitative_result = 55

[[record]]
compound = "Nc1ccc2[nH]c(CN3C(=O)c4cc(F)ccc4[C@]34CCN(Cc3ccc(F)cc3)C4=O)cc2n1"
endpoint_unit = "µM"
quantitative_result = 106

[[record]]
compound = "Cn1c(CN2C(=O)c3cc(F)ccc3[C@]23CCN(Cc2ccc(F)cc2)C3=O)cc2nc(N)ccc21"
endpoint_unit = "µM"
quantitative_result = 110

[[record]]
compound = "CNC(=N)Nc1ncc(CN2C(=O)c3cc(F)ccc3C2C(=O)NCc2ccc(F)cc2)s1 (stereo not drawn)"
endpoint_unit = "µM"
quantitative_result = 8


--- query ---
I have this compound here, Nc1nc2cc(CN3C(=O)c4cc(F)ccc4[C@]34CCN(Cc3ccc(F)cc3)C4=O)[nH]c2cc1F , and I need its recorded solubility at 24 h.
8

---

- PROTOCOL DETAILS: Intrinsic clearance in human hepatocytes assessed per million cells
- Type: ADME, cell-based, Hepatocyte
- STUDY CONDITIONS: read-out: CLH
PROPERTY LABEL: hepatocyte CLint

A selection of reference data follows.
[[record]]
smiles_text = "Nc1ccc2[nH]c(CN3C(=O)c4cc(F)ccc4[C@]34CCN(Cc3ccc(F)cc3)C4=O)cc2n1"
result = "< 1 µL/min/1e6 cells"

[[record]]
smiles_text = "Nc1nc2cc(CN3C(=O)c4cc(F)ccc4[C@]34CCN(Cc3ccc(F)cc3)C4=O)[nH]c2cc1F"
result = "< 1 µL/min/1e6 cells"


Now examine the next entry.
Given the entry Nc1ccc2[nH]c(CN3C(=O)c4cc(F)ccc4[C@]34CCN(Cc3ccc(F)cc3)C4=O)nc2n1 , report its measured hepatocyte CLint.
< 1 µL/min/1e6 cells

---

compounds and their reported logD
- PROTOCOL DETAILS: physchem
- STUDY CONDITIONS: buffer, pH 7.4
- Description: Lipophilicity, logD of compound at pH 7.4
# output: bare number, no unit

Examples with their reported logD follow.
[[record]]
compound = "Nc1ccc2[nH]c(CN3C(=O)c4cc(F)ccc4[C@]34CCN(Cc3ccc(F)cc3)C4=O)cc2n1"
property_label = "logD"
quantitative_result = 2.2

[[record]]
compound = "Nc1ccc2ncc(CN3C(=O)c4cc(F)ccc4[C@]34CCN(Cc3ccc(F)cc3)C4=O)cc2n1"
property_label = "logD"
quantitative_result = 2.2

[[record]]
compound = "COc1ccc2c(c1)C(=O)N(Cc1cnc(NC(=N)N)s1)C2C(=O)NCc1ccc(F)cc1 (stereo not drawn)"
property_label = "logD"
quantitative_result = 2.3

[[record]]
compound = "Nc1ccc2oc(CN3C(=O)c4cc(F)ccc4[C@]34CCN(Cc3ccc(F)cc3)C4=O)cc2n1"
property_label = "logD"
quantitative_result = 2.3

[[record]]
compound = "CNC(=N)Nc1ncc(CN2C(=O)c3cc(F)ccc3C2C(=O)NCc2ccc(F)cc2)s1 (stereo not drawn)"
property_label = "logD"
quantitative_result = 2.7


Any idea what its logD is? The compound is N=C(N)Nc1ncc(CN2C(=O)c3cc(F)ccc3C2C(=O)NCc2ccc(F)cc2)s1 (stereo not drawn)
2.5

Sample O=C(NCc1ccc(F)cc1)C1c2ccccc2C(=O)N1Cc1cc2cccnc2[nH]1 (stereo not drawn) — what was its logD?
3.3

Give the measured logD of N=C(N)Nc1ncc(CN2C(=O)c3ccccc3C2C(=O)N(Cc2ccc(F)cc2)C2CC2)s1 (stereo not drawn) .
2.6

# credit: ChEMBL document CHEMBL5576120
